The origin of these recorded values is paper PMC10299155.

# tested_system: T1, 2FJG4P (artificial (motif derived from human …))
# T1 chain: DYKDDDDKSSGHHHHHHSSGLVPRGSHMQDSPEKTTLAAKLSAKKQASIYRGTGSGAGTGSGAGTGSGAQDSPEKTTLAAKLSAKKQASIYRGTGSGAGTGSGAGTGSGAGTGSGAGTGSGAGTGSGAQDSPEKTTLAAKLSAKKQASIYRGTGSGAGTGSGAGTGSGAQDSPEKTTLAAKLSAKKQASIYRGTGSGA
# protocol_notes: smTIRFM (koff/kon); kon 0.0339e9 M-1 s-1, koff 0.4 s-1; EMSA: DNA annealed in 200 mM Tris pH 7.4, 100 mM KCl, 1 mM EDTA; binding 10 min at 25 C, native PAGE; smTIRFM: 100 pM tethered DNA, 100-5000 pM protein, buffer
# experimental_setup: protein: recombinant; tags: N-terminal FLAG-6xHis; label: 3' biotin on strand 2; 18 bp duplex with 3' ssDNA tail folded as G4, mixed topology
recorded_endpoint: Kd (nM)
Output spec: scalar in nM, unitless text.

Form field Kd, entry hTelG4 (smTIRFM tethering) (mixed) DNA 1: TGGCGACGGCAGCGAGGCTTAGGGTTAGGGTTAGGGTTTAGGGTTAGGG DNA 2: GCCTCGCTGCCGTCGCCA : 10.7
